Target: Pfs48/45 D2-3 (Plasmodium falciparum 3D7, UniProt Q8I6T1)
Sequence (Q8I6T1 184-428): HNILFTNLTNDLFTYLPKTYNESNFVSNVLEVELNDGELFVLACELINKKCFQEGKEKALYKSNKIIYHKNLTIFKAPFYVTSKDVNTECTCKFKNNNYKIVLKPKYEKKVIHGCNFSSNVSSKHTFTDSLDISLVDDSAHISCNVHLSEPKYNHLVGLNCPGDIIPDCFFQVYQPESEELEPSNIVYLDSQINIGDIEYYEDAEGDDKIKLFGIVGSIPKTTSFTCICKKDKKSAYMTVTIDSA
Assay: ELISA
Settings: both partners purified
recorded_endpoint: binding result

binder | result
RUPA-44 (antibody, V domains shown, human IgG1; source: recombinant human IgG1, 293T (Protein A purified) or GenScript) VH: QLQLQESGPGLVKPSETLSLTCTVSGGSISRSPYYWGWIRQPPGKGLEWFGSIYNNGSTYYNPPLKSRLTISVDTSKNQFSLKLSSVTAADTAVYYCARHGGSTGMKVVVIAPPDYWGQGTLVTVSS VL: DIQMTQSPATLSASVGDRVTITCRASQSISSWLAWYQQKPGEAPKLLIYKASSLQSGVPSRFSGSGSGTKFSLTISSLQPDDFATFYCQQYHSYPYTFGQGTKLEIK | binds
RUPA-43 (antibody, V domains shown, human IgG1; source: recombinant human IgG1, 293T (Protein A purified) or GenScript) VH: QVLLVQSGAEVKKPGASVKVSCKASGYTFLYHDISWVRQATGQGLEWMGWMNPNTGDTGYAQRFQGRVTMTRDMSISTAYLELGSLSSEDTAVYYCARGVGSYHGSGGWLDPWGQGTLVIVSS VL: QSVLTQPPSVSETPGQRVTISCSGTSSNIGINTVNWYQQLPGTAPKLLIHNDNQRPSGVPDRFAGSKSGSSAALAISGLQSEDEADYYCGTWDDSLKRRVFGGGTKLTVL | binds
